# PROTOCOL_DETAILS: Cellular Toxicity (caspase-3) MRC-5 (AID 659);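 note: cells exposed to compound for 16 h at 37 °C; 0% = DMSO basal and 100% = 10 µM staurosporine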
# MEASUREMENT_CONDITIONS: MRC-5 cells, luminescence; caspase-3 activation; series mostly up to 91.7 µM
Calls of active or inactive are those of the source. Calls come from the whole dose curve; as a rule, active = well fitted curve in the direction sought with a large enough effect; inconclusive = small, poorly fitted or top-dose-only effect, or another doubt; inactive = no such curve, though single readings can be large or run the other way.
OBSERVABLE: outcome

Examples with answers:
COMPOUND: COC1=CC(=O)O[C@@H](/C=C/c2ccccc2)C1
outcome: inactive

COMPOUND: O=[N+]([O-])c1ccccc1
outcome: inactive

COMPOUND: CCCCCCCCOC(=O)c1ccccc1C(=O)OCCCCCCCC
outcome: inactive

COMPOUND: O=C1CCO1
outcome: inactive

COMPOUND: O=C1C=CC(=O)C=C1
outcome: inactive

Find the recorded outcome belonging to S=C=S and report it.
inactive

Query (compound): CCCCCl ; field requested: outcome
inactive

Which outcome value is on record for O=C(O)C(Cl)(Cl)Cl ?
inactive

GET /values?readout=outcome&item= CCOC(=O)c1ccccc1C(=O)OCC
inactive

====

# TARGET_OR_TEST_SYSTEM: Thioredoxin reductase 1, cytoplasmic (Rattus norvegicus) (UniProt O89049)
# Sequence (O89049 whole entry, looked up): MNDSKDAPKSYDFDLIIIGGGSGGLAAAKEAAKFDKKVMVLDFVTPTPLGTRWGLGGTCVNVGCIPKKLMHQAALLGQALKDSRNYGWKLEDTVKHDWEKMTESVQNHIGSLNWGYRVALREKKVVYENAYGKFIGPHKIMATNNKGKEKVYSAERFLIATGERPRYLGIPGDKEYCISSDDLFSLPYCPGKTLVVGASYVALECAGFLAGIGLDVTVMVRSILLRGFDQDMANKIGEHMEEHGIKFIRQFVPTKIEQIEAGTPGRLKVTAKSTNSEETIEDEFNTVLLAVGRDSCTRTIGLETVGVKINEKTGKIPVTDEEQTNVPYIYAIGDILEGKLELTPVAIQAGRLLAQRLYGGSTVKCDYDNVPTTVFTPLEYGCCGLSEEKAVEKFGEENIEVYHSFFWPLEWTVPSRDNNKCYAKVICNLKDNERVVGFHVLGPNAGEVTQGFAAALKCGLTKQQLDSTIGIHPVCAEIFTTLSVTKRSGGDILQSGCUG
# PROTOCOL_DETAILS: qHTS Assay for Inhibitors of Mammalian Selenoprotein Thioredoxin Reductase 1 (TrxR1) (AID 488773); note: nearly all actives have a fitted effect of over 40% in size
# MEASUREMENT_CONDITIONS: purified TrxR1 enzyme activity; inhibition; series mostly up to 57.1 µM
Inconclusive results are not listed. Activity calls are given as the source filed them. Calls come from the whole dose curve; as a rule, active = well fitted inhibition curve with a large enough effect; inconclusive = small, poorly fitted or top-dose-only effect; inactive = no such curve, though single readings can be large or run the other way.
A correct response names exactly one class from label 1 = active, label 0 = inactive

Record lookup: outcome of this test for NCCc1c[nH]c2ccc(C(N)=O)cc12 ?
label 0

State the result this test recorded for CC1(C(=O)O)C2CCC(O2)C1(C)C(=O)O (stereo not drawn) .
label 0

Hi team, can someone confirm the assay call for CN(C(=O)Cc1ccc(Cl)c(Cl)c1)C(CN1CCCC1)c1cccc(OCC(=O)O)c1 (stereo not drawn) ?
label 0

Tell me the assay call for NC(=O)COc1c(F)cc(SCCNS(=O)(=O)c2ccccc2)cc1F please.
label 0

Name the outcome recorded for CCNC(=O)[C@H]1O[C@@H](n2cnc3c(N)ncnc32)[C@H](O)[C@@H]1O in the assay.
label 0

State the result this test recorded for NNC(=O)c1ccc(O)cc1 .
label 0

Hi, sorry to bother you, what did the test record for NC(C(=O)O)c1cc(=O)[nH]o1 (stereo not drawn) ?
label 0

# outcome recorded in this test, key = OCc1cnc[nH]1
label 0

Recorded test call requested for CCCN1CCC[C@@H](c2cccc(O)c2)C1
label 0

Called result for N#CCCN
label 0

Which result was noted for this compound in the test: O=C1C=CC(=O)C=C1
label 0

Called result for O=[N+]([O-])c1cc(O)c(O)c([N+](=O)[O-])c1
label 0

For C=CCN1CCc2cccc3c2[C@H]1Cc1ccc(O)c(O)c1-3 , what call appears in the results of this test?
label 1

====

# PROTOCOL_DETAILS: Cell Viability - H-4-II-E (AID 543);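 note: cells exposed to compound for 40 hours; nearly all actives have a fitted effect of over 35% in size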
# MEASUREMENT_CONDITIONS: H-4-II-E rat hepatoma viability; series mostly up to 92.2 µM
Results filed as inconclusive are left out. Active and inactive are the calls of the source. The call rests on the fitted dose curve; in most records, active means well fitted cell-killing curve with a large enough effect; inconclusive means small, poorly fitted or top-dose-only effect; inactive means flat fitted curve, though single readings scatter.
Your answer must be one of the following: t for active, f for inactive

GET /call?item= NNC(N)=O returns the recorded outcome of this test.
f

I would be grateful if you could indicate the recorded call for CCOC(=O)c1ccccc1C(=O)OCC .
f

What is the recorded call for this compound in the test? O=C/C=C/c1ccccc1
f

Recorded test call requested for COc1ccc2c(c1OC)C(=O)OC2C1c2cc3c(cc2CCN1C)OCO3 (stereo unspecified)
f

Recorded test call requested for O=[N+]([O-])c1ccccc1
f

Status in this test for CCCCCCCCOC(=O)c1ccccc1C(=O)OCCCCCCCC ?
f

For O=C1C=CC(=O)C=C1 , what call appears in the results of this test?
f

How was O=C1CCO1 classified in this test?
f

Record request — test call for O=CC=O
f

Test call, this compound: C=CCN=C=S
f

Please state the recorded outcome for this compound: CC(C)Nc1ccc(Nc2ccccc2)cc1
t

Could you check what this test reported for C[C@H]1CC[C@@H]2[C@@H](C)[C@H]3[C@H](C[C@H]4[C@@H]5CC=C6CC(O[C@@H]7O[C@H](CO)[C@H](O)[C@H](O[C@@H]8O[C@H](CO)[C@@H](O)[C@H](O)[C@H]8O)[C@H]7O[C@H]7O[C@@H](C)[C@H](O)[C@@H](O)[C@H]7O)CC[C@]6(C)[C@H]5CC[C@]34C)N2C1 (stereo partly specified) ?
t

Given O=C(O)C(Cl)(Cl)Cl , state the outcome it received in this test.
f

Please indicate how the test categorized CCCCCl .
f

// param item: O=Cc1ccco1 ; yields the recorded call
f

Record request — test call for [Cl-].[Cl-].[Hg+2]
t
